targetOrTestSystem: human recombinant HDAC6 (Homo sapiens, UniProt Q9UBN7)
Sequence (Q9UBN7 whole entry): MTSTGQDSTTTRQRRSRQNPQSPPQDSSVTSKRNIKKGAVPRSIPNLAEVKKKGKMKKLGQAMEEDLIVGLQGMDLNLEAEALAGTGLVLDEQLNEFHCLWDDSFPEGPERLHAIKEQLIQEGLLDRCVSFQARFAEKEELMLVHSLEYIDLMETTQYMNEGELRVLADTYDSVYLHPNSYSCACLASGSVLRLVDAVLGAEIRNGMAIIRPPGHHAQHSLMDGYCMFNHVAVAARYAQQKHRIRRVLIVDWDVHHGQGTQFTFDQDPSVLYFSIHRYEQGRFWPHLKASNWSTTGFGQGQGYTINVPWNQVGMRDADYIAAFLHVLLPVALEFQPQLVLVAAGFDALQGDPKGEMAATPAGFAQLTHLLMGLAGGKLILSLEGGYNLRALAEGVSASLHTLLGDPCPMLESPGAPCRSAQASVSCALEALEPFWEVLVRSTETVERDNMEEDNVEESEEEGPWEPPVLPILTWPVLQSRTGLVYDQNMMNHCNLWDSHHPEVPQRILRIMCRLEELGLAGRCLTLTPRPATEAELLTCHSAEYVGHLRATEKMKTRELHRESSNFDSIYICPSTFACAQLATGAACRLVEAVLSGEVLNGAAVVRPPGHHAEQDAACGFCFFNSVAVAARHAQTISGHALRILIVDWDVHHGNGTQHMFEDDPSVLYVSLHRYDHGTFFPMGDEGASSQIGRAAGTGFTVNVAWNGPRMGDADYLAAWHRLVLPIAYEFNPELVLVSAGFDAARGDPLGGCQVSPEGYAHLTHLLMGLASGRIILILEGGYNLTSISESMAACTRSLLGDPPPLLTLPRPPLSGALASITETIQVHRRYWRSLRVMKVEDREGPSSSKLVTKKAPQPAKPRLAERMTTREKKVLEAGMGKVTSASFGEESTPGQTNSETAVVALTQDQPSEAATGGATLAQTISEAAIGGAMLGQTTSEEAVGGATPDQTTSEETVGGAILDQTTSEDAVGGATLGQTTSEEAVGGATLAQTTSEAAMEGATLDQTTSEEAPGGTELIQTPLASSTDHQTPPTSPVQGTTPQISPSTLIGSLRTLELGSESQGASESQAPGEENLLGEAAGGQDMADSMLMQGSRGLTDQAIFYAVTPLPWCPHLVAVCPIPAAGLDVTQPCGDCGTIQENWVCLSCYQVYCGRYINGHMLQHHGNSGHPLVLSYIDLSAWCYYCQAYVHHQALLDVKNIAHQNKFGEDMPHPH
testSummary: HDAC6 enzyme activity inhibition assay (HDAC Fluorimetric Drug Discovery Kit)
measurementConditions: 30° C. 60 minutes
propertyLabel: pIC50
Units for pIC50: none; it is -log10 of a concentration expressed in mol/L.

*Q* Find pIC50 (human recombinant HDAC6 (Homo sapiens, UniProt Q9UBN7)) for the entry Cc1cccc(C2(Nc3ncc(-c4nnc(C(F)(F)F)o4)cn3)CCC2)c1 [Compound 1674]
*A* 6.88

*Q* Record: Fc1ccc(Cl)cc1C1(Nc2ncc(-c3nnc(C(F)F)o3)cn2)CCC1 [Compound 1963]
*A* 7.05

*Q* Record: FC(F)c1nnc(-c2cnc(NC3(c4ccccc4OC(F)(F)F)CCC3)nc2)o1 [Compound 2028]
*A* 6.52

* * *

Entries and their pIC50
targetOrTestSystem: human recombinant HDAC1 (Homo sapiens, UniProt Q13547)
Sequence (Q13547 whole entry): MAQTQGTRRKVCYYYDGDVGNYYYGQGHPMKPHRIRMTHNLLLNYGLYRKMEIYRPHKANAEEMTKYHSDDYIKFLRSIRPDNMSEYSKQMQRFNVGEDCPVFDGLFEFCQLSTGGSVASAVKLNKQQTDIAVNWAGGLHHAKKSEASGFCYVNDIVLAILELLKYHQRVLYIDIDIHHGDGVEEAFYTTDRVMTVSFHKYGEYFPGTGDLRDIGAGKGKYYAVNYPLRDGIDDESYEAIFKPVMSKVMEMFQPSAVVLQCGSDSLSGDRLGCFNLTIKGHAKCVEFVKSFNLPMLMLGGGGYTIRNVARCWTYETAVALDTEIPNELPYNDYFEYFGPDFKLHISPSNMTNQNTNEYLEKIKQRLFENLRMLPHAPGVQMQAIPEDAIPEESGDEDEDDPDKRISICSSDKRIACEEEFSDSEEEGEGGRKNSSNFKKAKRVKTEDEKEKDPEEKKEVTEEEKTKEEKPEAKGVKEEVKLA
testSummary: HDAC1 enzyme activity inhibition assay (HDAC Fluorimetric Drug Discovery Kit)
measurementConditions: human recombinant HDAC1, 10 μM substrate, 30° C. 60 minutes
pIC50: −log10 of the molar value.

Fc1cccc(C2(Nc3ncc(-c4nnc(C(F)F)o4)cn3)CCC2)c1F [Compound 1827] :: < 5.00

*Q* Value lookup for pIC50; key = CC(C)N1CCC(c2ccc(C3(Nc4ncc(-c5nnc(C(F)F)o5)cn4)CCC3)cc2)CC1 [Compound 2037]
*A* < 5.00

*Q* Record: FC(F)c1nnc(-c2cnc(NC3(c4ccccc4)CC3)nc2)o1 [Compound 1524]
*A* < 5.00

*Q* Record: FC(F)c1nnc(-c2cnc(NC3(c4cccc(C(F)(F)F)c4)CCC3)nc2)o1 [Compound 1642]
*A* < 5.00

*Q* Record: FC(F)c1nnc(-c2cnc(NC3(c4cccs4)CC3)nc2)o1 [Compound 2040]
*A* < 5.00

*Q* Record: Fc1ccc(C2(Nc3ncc(-c4nnc(C(F)F)o4)cn3)CC2)cc1F [Compound 2058]
*A* < 5.00

*Q* Record: FC(F)c1nnc(-c2cnc(NC3(c4ccc(C(F)(F)F)cc4)CC3)nc2)o1 [Compound 1738]
*A* < 5.00

*Q* Record: FC(F)c1nnc(-c2cnc(NC3(c4ccc(Cl)cc4)CC3)nc2)o1 [Compound 2052]
*A* < 5.00

*Q* Record: FC(F)c1nnc(-c2cnc(NC3(c4ccccc4C(F)(F)F)CCC3)nc2)o1 [Compound 2042]
*A* < 5.00

*Q* Record: FC(F)(F)c1nnc(-c2cnc(NC3(c4ccccn4)CCC3)nc2)o1 [Compound 1641]
*A* < 5.00

*Q* Record: Fc1ccccc1C1(Nc2ncc(-c3nnc(C(F)F)o3)cn2)CCC1 [Compound 1609]
*A* < 5.00

*Q* Record: Fc1cc(Cl)ccc1C1(Nc2ncc(-c3nnc(C(F)F)o3)cn2)CC1 [Compound 2056]
*A* < 5.00

*Q* Record: Fc1ccc(C2(Nc3ncc(-c4nnc(C(F)(F)F)o4)cn3)CC2)cc1F [Compound 1780]
*A* < 5.00

*Q* Record: FC(F)(F)c1nnc(-c2cnc(NC3(c4ccccc4)CCCCC3)nc2)o1 [Compound 1582]
*A* < 5.00

*Q* Record: COc1cccc(C2(Nc3ncc(-c4nnc(C(F)F)o4)cn3)CC2)c1 [Compound 2048]
*A* < 5.00

*Q* Record: Fc1cccc(C2(Nc3ncc(-c4nnc(C(F)F)o4)cn3)CC2)c1 [Compound 1713]
*A* < 5.00
